Documented relative viability across a set of compounds
- Tested on: EMC-BAC-2
- protocol.description: relative viability (nuclei count vs DMSO), 5 days (fraction); higher = more cells survive
- cond: first compound 0.002 µM
// response body must contain only the number

Answered cases to consult:
[[record]]
compound = "CCNC(=O)c1noc(-c2cc(C(C)C)c(O)cc2O)c1-c1ccc(CN2CCOCC2)cc1 [Luminespib] + Nc1nc2[nH]cc(CCc3ccc(C(=O)N[C@@H](CCC(=O)O)C(=O)O)cc3)c2c(=O)[nH]1 [Pemetrexed] (partner 0.2 µM)"
meas_value = 0.467

[[record]]
compound = "CCNC(=O)c1noc(-c2cc(C(C)C)c(O)cc2O)c1-c1ccc(CN2CCOCC2)cc1 [Luminespib] + O=C(CCCCCCC(=O)Nc1ccccc1)NO [Vorinostat] (partner 1 µM)"
meas_value = 0.461

[[record]]
compound = "CCNC(=O)c1noc(-c2cc(C(C)C)c(O)cc2O)c1-c1ccc(CN2CCOCC2)cc1 [Luminespib] + N=C(N)NC(=N)NCCc1ccccc1 [Phenformin] (partner 250 µM)"
meas_value = 0.529

[[record]]
compound = "CCNC(=O)c1noc(-c2cc(C(C)C)c(O)cc2O)c1-c1ccc(CN2CCOCC2)cc1 [Luminespib] + COc1cccc2cc(-c3nc([C@H]4CC[C@H](C(=O)O)CC4)n4ncnc(N)c34)[nH]c12 [OSI-027] (partner 0.5 µM)"
meas_value = 0.426

[[record]]
compound = "CCNC(=O)c1noc(-c2cc(C(C)C)c(O)cc2O)c1-c1ccc(CN2CCOCC2)cc1 [Luminespib] + Cc1nc(NC(=O)N2CCC[C@H]2C(N)=O)sc1-c1ccnc(C(C)(C)C(F)(F)F)c1 [Alpelisib] (partner 2 µM)"
meas_value = 0.746

[[record]]
compound = "CCNC(=O)c1noc(-c2cc(C(C)C)c(O)cc2O)c1-c1ccc(CN2CCOCC2)cc1 [Luminespib] + Cc1cc(Nc2cc(N3CCN(C)CC3)nc(Sc3ccc(NC(=O)C4CC4)cc3)n2)n[nH]1 [Tozasertib] (partner 0.1 µM)"
meas_value = 0.345


Recorded result, CCNC(=O)c1noc(-c2cc(C(C)C)c(O)cc2O)c1-c1ccc(CN2CCOCC2)cc1 [Luminespib] + COc1cc2c(Oc3ccc(NC(=O)C4(C(=O)Nc5ccc(F)cc5)CC4)cc3F)ccnc2cc1OCCCN1CCOCC1 [Foretinib] (partner 0.25 µM) , relative viability: 1.03

---

- Test system: NCI-H2228
- protocol.description: relative viability (nuclei count vs DMSO), 5 days (fraction); higher = more cells survive
- cond: first compound 2 µM
In this section, each of the molecules is paired with its reported relative viability.
Give a plain numeric answer without units written out.

[[record]]
molecule = "CN1CCN(CCOc2cc(OC3CCOCC3)c3c(Nc4c(Cl)ccc5c4OCO5)ncnc3c2)CC1 [Saracatinib] + C[C@]1(O)C[C@@H](c2nc(-c3ccc4ccc(-c5ccccc5)nc4c3)c3c(N)nccn32)C1 [Linsitinib] (partner 1 µM)"
target_system = "NCI-H2228"
meas_value = 0.392


# input for lookup
I looked up Cc1csc(=NC2CCCCC2)n1/N=C/c1ccc(O)c(O)c1O [MIM1] + CCNC(=O)c1noc(-c2cc(C(C)C)c(O)cc2O)c1-c1ccc(CN2CCOCC2)cc1 [Luminespib] (partner 0.01 µM) and its relative viability for NCI-H2228 was 0.181

---

We begin with a simple list: items and their reported relative viability.
- System: NCI-H727
- protocol.description: relative viability (nuclei count vs DMSO), 5 days (fraction); higher = more cells survive
- cond: first compound 8 µM
Provide a numeric answer; units are not to be included.

[[record]]
compound = "Nc1cccc2c1CN(C1CCC(=O)NC1=O)C2=O (configuration not stated) [Lenalidomide] + N=C(N)NC(=N)NCCc1ccccc1 [Phenformin] (partner 250 µM)"
value_type = "relative viability"
meas_value = 0.423


Now for the compound whose relative viability we want.
For this compound ( Nc1cccc2c1CN(C1CCC(=O)NC1=O)C2=O (configuration not stated) [Lenalidomide] + CC1(C)CCC(c2ccc(Cl)cc2)=C(CN2CCN(c3ccc(C(=O)NS(=O)(=O)c4ccc(N[C@H](CCN5CCOCC5)CSc5ccccc5)c(S(=O)(=O)C(F)(F)F)c4)cc3)CC2)C1 [Navitoclax] (partner 0.5 µM) ), measured relative viability is 0.345

---

- Test system: NCI-H1355
- protocol.description: relative viability (nuclei count vs DMSO), 5 days (fraction); higher = more cells survive
- cond: first compound 2 µM
value.type: relative viability
Number, no unit, nothing else.

In the examples that follow, each entry is paired with its recorded relative viability.
[[record]]
molecule = "Cc1csc(=NC2CCCCC2)n1/N=C/c1ccc(O)c(O)c1O [MIM1] + C[C@]1(O)C[C@@H](c2nc(-c3ccc4ccc(-c5ccccc5)nc4c3)c3c(N)nccn32)C1 [Linsitinib] (partner 1 µM)"
value_type = "relative viability"
meas_value = 0.898

[[record]]
molecule = "Cc1csc(=NC2CCCCC2)n1/N=C/c1ccc(O)c(O)c1O [MIM1] + CC(=O)Nc1cccc(-n2c(=O)n(C3CC3)c(=O)c3c(Nc4ccc(I)cc4F)n(C)c(=O)c(C)c32)c1 [Trametinib] (partner 0.02 µM)"
value_type = "relative viability"
meas_value = 0.457

[[record]]
molecule = "CN1CCN(CCOc2cc(OC3CCOCC3)c3c(Nc4c(Cl)ccc5c4OCO5)ncnc3c2)CC1 [Saracatinib] + COc1cc2c(Oc3ccc(NC(=O)C4(C(=O)Nc5ccc(F)cc5)CC4)cc3F)ccnc2cc1OCCCN1CCOCC1 [Foretinib] (partner 0.25 µM)"
value_type = "relative viability"
meas_value = 0.934

[[record]]
molecule = "Cc1csc(=NC2CCCCC2)n1/N=C/c1ccc(O)c(O)c1O [MIM1] + COc1cccc2cc(-c3nc([C@H]4CC[C@H](C(=O)O)CC4)n4ncnc(N)c34)[nH]c12 [OSI-027] (partner 0.5 µM)"
value_type = "relative viability"
meas_value = 0.399

[[record]]
molecule = "CN1CCN(CCOc2cc(OC3CCOCC3)c3c(Nc4c(Cl)ccc5c4OCO5)ncnc3c2)CC1 [Saracatinib] + Cc1nc(Nc2ncc(C(=O)Nc3c(C)cccc3Cl)s2)cc(N2CCN(CCO)CC2)n1 [Dasatinib] (partner 0.075 µM)"
value_type = "relative viability"
meas_value = 0.731


Field: next molecule
So, CN1CCN(CCOc2cc(OC3CCOCC3)c3c(Nc4c(Cl)ccc5c4OCO5)ncnc3c2)CC1 [Saracatinib] + CC(C)C[C@H](NC(=O)[C@H](Cc1ccccc1)NC(=O)c1cnccn1)B(O)O [Bortezomib] (partner 0.002 µM) ? Its relative viability was 1.17

---

- System: NCI-H358
- protocol.description: relative viability (nuclei count vs DMSO), 5 days (fraction); higher = more cells survive
- cond: first compound 0.6325 µM
value.type: relative viability
Kindly provide the number alone.

[[record]]
compound = "Cc1csc(=NC2CCCCC2)n1/N=C/c1ccc(O)c(O)c1O [MIM1] + C[C@]1(O)C[C@@H](c2nc(-c3ccc4ccc(-c5ccccc5)nc4c3)c3c(N)nccn32)C1 [Linsitinib] (partner 1 µM)"
value_type = "relative viability"
meas_value = 0.651


API: the following record is the query input.
Given the compound CN1CCN(CCOc2cc(OC3CCOCC3)c3c(Nc4c(Cl)ccc5c4OCO5)ncnc3c2)CC1 [Saracatinib] + CS(=O)(=O)N1CCN(Cc2cc3nc(-c4cccc5[nH]ncc45)nc(N4CCOCC4)c3s2)CC1 [Pictilisib] (partner 1 µM) and test system NCI-H358, the measured relative viability is 0.284

---

- System: HARA
- protocol.description: relative viability (nuclei count vs DMSO), 5 days (fraction); higher = more cells survive
- cond: first compound 0.1 µM
Consider the following molecules and their measured relative viability readings.
Answer field: number only, no words.

The recorded relative viability with HARA for Cc1cn(-c2cc(NC(=O)c3ccc(C)c(Nc4nccc(-c5cccnc5)n4)c3)cc(C(F)(F)F)c2)cn1 [Nilotinib] + COc1cccc2cc(-c3nc([C@H]4CC[C@H](C(=O)O)CC4)n4ncnc(N)c34)[nH]c12 [OSI-027] (partner 0.5 µM) was 0.231

I looked up Cc1cn(-c2cc(NC(=O)c3ccc(C)c(Nc4nccc(-c5cccnc5)n4)c3)cc(C(F)(F)F)c2)cn1 [Nilotinib] + C[C@]1(O)C[C@@H](c2nc(-c3ccc4ccc(-c5ccccc5)nc4c3)c3c(N)nccn32)C1 [Linsitinib] (partner 1 µM) and its relative viability for HARA was 0.93

The measured relative viability that Cc1cn(-c2cc(NC(=O)c3ccc(C)c(Nc4nccc(-c5cccnc5)n4)c3)cc(C(F)(F)F)c2)cn1 [Nilotinib] + Cc1nc(NC(=O)N2CCC[C@H]2C(N)=O)sc1-c1ccnc(C(C)(C)C(F)(F)F)c1 [Alpelisib] (partner 2 µM) showed for HARA is 0.821

Value (relative viability, HARA) for record Cc1cn(-c2cc(NC(=O)c3ccc(C)c(Nc4nccc(-c5cccnc5)n4)c3)cc(C(F)(F)F)c2)cn1 [Nilotinib] + CC(C)C[C@H](NC(=O)[C@H](Cc1ccccc1)NC(=O)c1cnccn1)B(O)O [Bortezomib] (partner 0.002 µM) = 0.859
